pIC50 values for E3 ubiquitin-protein ligase Mdm2 (Homo sapiens, UniProt Q00987), compiled from several publications.
pIC50: −log10 of the molar value.
quantity name: pIC50

- molecule: "O=c1nc2n(-c3ccc(Cl)cc3)c3cccc(Cl)c3cc-2c(=O)[nH]1"
  value modifier: "<"
  recorded number: 4.00
- molecule: "O=c1nc2n(-c3ccccc3F)c3c(C(F)(F)F)cccc3cc-2c(=O)[nH]1"
  value modifier: "="
  recorded number: 4.71
- molecule: "O=C(O)[C@H](c1ccc(Cl)nc1)N1C(=O)c2cc(I)ccc2NC(=O)[C@@H]1c1ccc(Cl)cc1"
  value modifier: "="
  recorded number: 5.83
- molecule: "CC(C)CC[C@@H](C(=O)O)N1C(=O)c2cc(I)ccc2NC(=O)[C@@H]1c1ccc(Cl)cc1"
  value modifier: "="
  recorded number: 4.92
- molecule: "COc1cccc2c(C(=O)N[C@H]3CCN(c4ccc(C)cc4)C3)c[nH]c12"
  value modifier: "<"
  recorded number: 4.30
- molecule: "O=C(O)[C@H](c1cccc(Cl)c1)N1C(=O)c2cc(I)ccc2NC(=O)[C@@H]1c1ccc(Cl)cc1"
  value modifier: "="
  recorded number: 5.57
- molecule: "CC(C)C1=C(C(=O)N2CCNC(=O)CC2)SC2=N[C@@H](c3ccc(Cl)cc3)[C@@H](c3ccc(Cl)cc3)N21 (racemic)"
  value modifier: "="
  recorded number: 5.96
- molecule: "O=C(O)[C@H](c1ccc(Cl)nc1)N1C(=O)c2cc(I)ccc2NC(=O)[C@@H]1c1c[nH]c2ccccc12"
  value modifier: "="
  recorded number: 4.26

====

The entries that follow carry pIC50 values tested on E3 ubiquitin-protein ligase Mdm2 (Homo sapiens, UniProt Q00987), drawn from several published reports.
Sequence (Q00987 whole entry): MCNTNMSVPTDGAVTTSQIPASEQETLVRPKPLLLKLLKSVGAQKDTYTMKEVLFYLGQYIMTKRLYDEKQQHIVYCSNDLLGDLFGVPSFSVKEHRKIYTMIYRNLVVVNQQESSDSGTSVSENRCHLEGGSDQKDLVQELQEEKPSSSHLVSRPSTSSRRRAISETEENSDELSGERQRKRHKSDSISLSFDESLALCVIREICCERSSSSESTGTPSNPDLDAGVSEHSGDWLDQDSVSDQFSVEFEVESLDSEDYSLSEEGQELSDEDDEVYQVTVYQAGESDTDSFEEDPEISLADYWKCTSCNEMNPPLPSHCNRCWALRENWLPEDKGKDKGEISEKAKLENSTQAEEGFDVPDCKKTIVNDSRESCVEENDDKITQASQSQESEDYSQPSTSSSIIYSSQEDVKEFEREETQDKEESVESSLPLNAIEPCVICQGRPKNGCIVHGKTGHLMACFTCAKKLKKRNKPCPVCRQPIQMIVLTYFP
pIC50: −log10 of the molar value.

- compound: "O=c1nc2n(-c3ccc(F)cc3)c3c(C(F)(F)F)cccc3cc-2c(=O)[nH]1"
  value modifier: "="
  pIC50: 4.88
- compound: "O=C(O)[C@H](c1ccc(Cl)cc1)N1C(=O)c2cc(I)c(Cl)cc2NC(=O)[C@@H]1c1ccc(Cl)cc1"
  value modifier: "="
  pIC50: 6.15
- compound: "O=C(O)[C@H](c1ccccc1)N1C(=O)c2cc(I)ccc2NC(=O)[C@@H]1c1ccc(OC(F)(F)F)cc1"
  value modifier: "="
  pIC50: 5.88
- compound: "O=C(O)[C@H](c1ccc(Cl)nc1)N1C(=O)c2cc(I)ccc2NC(=O)[C@@H]1c1cc2ccccc2[nH]1"
  value modifier: "="
  pIC50: 5.10
- compound: "COc1ccc(COC(=O)N[C@H](C(=O)N[C@@H](CCC(C)=O)C(=O)N[C@@H](Cc2cn(S(=O)(=O)c3c(C)cc(C)cc3C)c3ccccc23)C(=O)N[C@@H](CC(C)C)C(=O)NN)C(C)C)cc1"
  value modifier: "="
  pIC50: 5.07
- compound: "O=c1nc2n(-c3ccc(Cl)cc3)c3cccc(C(F)(F)F)c3cc-2c(=O)[nH]1"
  value modifier: "<"
  pIC50: 4.00
- compound: "CC(C)c1ccc([C@@H](C(=O)O)N2C(=O)c3cc(I)ccc3NC(=O)[C@@H]2c2ccc(Cl)cc2)cc1"
  value modifier: "="
  pIC50: 5.81
- compound: "O=c1nc2n(-c3ccccc3F)c3cc(C(F)(F)F)ccc3cc-2c(=O)[nH]1"
  value modifier: "<"
  pIC50: 4.00
- compound: "COc1ccc(C2=NC(c3ccc(Cl)cc3)C(c3ccc(Cl)cc3)N2)c(OC(C)C)c1 (configuration not stated)"
  value modifier: "="
  pIC50: 7.05
- compound: "O=C1CN(C(=O)C2=C(C3CC3)N3C(=N[C@@H](c4ccc(Cl)cc4)[C@H]3c3ccc(Cl)cc3)S2)CCN1 (racemic)"
  value modifier: "="
  pIC50: 5.02
- compound: "CC(=O)Nc1ccc2c(c1)C(=O)N([C@H](C(=O)O)c1ccc(Cl)cc1)[C@@H](c1ccc(Cl)cc1)C(=O)N2"
  value modifier: "<"
  pIC50: 3.90
- compound: "CC(C)C1=C(C(=O)N2CCNC(=O)C2)SC2=N[C@@H](c3ccc(Cl)cc3)[C@@H](c3ccc(Cl)cc3)N21 (racemic)"
  value modifier: "="
  pIC50: 6.59
- compound: "CC1(C)CCC2(CC1)N[C@@H](C(=O)N[C@@H]1CC[C@@H](C(N)=O)OC1)[C@H](c1ccnc(Cl)c1F)[C@]21C(=O)Nc2cc(Cl)ccc21"
  value modifier: "="
  pIC50: 8.25
- compound: "CC(C)C1=C(C(=O)N2CCN(CCO)CC2)SC2=N[C@@H](c3ccc(Cl)cc3)[C@@H](c3ccc(Cl)cc3)N21 (racemic)"
  value modifier: "="
  pIC50: 5.74
- compound: "Cc1ccc([C@@H](C(=O)O)N2C(=O)c3cc(I)ccc3NC(=O)[C@@H]2c2ccc(Cl)cc2)cc1"
  value modifier: "="
  pIC50: 5.80
- compound: "O=C(O)[C@H](c1ccc(C(F)(F)F)cc1)N1C(=O)c2cc(I)ccc2NC(=O)[C@@H]1c1ccc(Cl)cc1"
  value modifier: "="
  pIC50: 6.17
- compound: "CC(C)C1=C(C(=O)N2C[C@@H](C)N[C@@H](C)C2)SC2=N[C@@H](c3ccc(Cl)cc3)[C@@H](c3ccc(Cl)cc3)N21 (racemic)"
  value modifier: "="
  pIC50: 6.85
